# Test target: MMOH (hydroxylase of soluble methane monooxygenase, sMMO)
# Assay procedure: isothermal titration calorimetry
# Study conditions: enthalpically driven; surface site near K323 proposed
Assay metric: pKd
Convention used: pKd is expressed as -log10 of the molar concentration.

Task item: Record request: pKd value, item `O=C1OC2(c3cc(I)c(O)c(I)c3Oc3c2cc(I)c(O)c3I)c2c(Cl)c(Cl)c(Cl)c(Cl)c21`
Reply: 5.03
